System: TK-10
protocol: NCI tumour cell line growth inhibition, 48 h
The source made the active and inactive calls. No stated cut-off is given here; in the data, active = GI50 up to about 1.1 µM and inactive = higher.
Recorded GI50 for the following molecules
metric: GI50

{"molecule": "CCC1c2[nH]c3ccccc3c2C[C@H]2C(=O)NC(C)C(=O)N12 (some centres not stated)", "metric": "GI50", "recorded_value": "> 100 µM (inactive)"}
{"molecule": "O=C(/C=C/c1ccccc1)Oc1cccc2cccnc12", "metric": "GI50", "recorded_value": "> 84.5 µM (inactive)"}
{"molecule": "CCOC(=O)COc1ccc(OC)c2c1C(=O)CCC2", "metric": "GI50", "recorded_value": "> 100 µM (inactive)"}
{"molecule": "O=C1OCC/C1=N/O", "metric": "GI50", "recorded_value": "> 100 µM (inactive)"}
{"molecule": "COc1cc(Oc2nc3ccc(C(F)(F)F)cc3nc2-c2ccccc2)cc(OC)c1OC", "metric": "GI50", "recorded_value": "30.1 µM (inactive)"}
{"molecule": "Nc1ccc2c(SCc3ccc([N+](=O)[O-])cc3)c3ccccc3nc2c1", "metric": "GI50", "recorded_value": "11.9 µM (inactive)"}
{"molecule": "O=C(Cc1nc2ccccc2s1)NC12CC3CC(CC(C3)C1)C2", "metric": "GI50", "recorded_value": "> 100 µM (inactive)"}
{"molecule": "CC(C)(C)c1ccc(-c2nnc(-c3cc(C#N)cc(-c4nnc(-c5ccc(C(C)(C)C)cc5)o4)c3)o2)cc1", "metric": "GI50", "recorded_value": "> 100 µM (inactive)"}
{"molecule": "Cc1cc(O)c2c(=O)c3c(O)cc(O)c4c5c(O)cc(O)c6c(=O)c7c(O)cc(C)c8c1c2c(c34)c(c78)c65", "metric": "GI50", "recorded_value": "> 100 µM (inactive)"}
{"molecule": "COc1cccc(C(=O)N2CCc3ccccc32)c1OC", "metric": "GI50", "recorded_value": "57.8 µM (inactive)"}
{"molecule": "CCOC(=O)C(Cc1ccc(N(CCCl)CCCl)cc1)NC(=O)CCCN1C(=O)CN=C(c2ccccc2)c2cc(Cl)ccc21 (configuration not stated)", "metric": "GI50", "recorded_value": "> 66.5 µM (inactive)"}
{"molecule": "CCOC(=O)CCc1cc(=O)oc2cc(O)cc(O)c12", "metric": "GI50", "recorded_value": "> 100 µM (inactive)"}
{"molecule": "Clc1ccc(OCc2nnc(CCCCCCCCc3nnc(COc4ccc(Cl)cc4)n3Nc3ccccc3)n2Nc2ccccc2)cc1", "metric": "GI50", "recorded_value": "23.7 µM (inactive)"}
{"molecule": "O=C(Sc1c(-c2ccccc2)c(=O)n(-c2ccccc2)c(=S)n1-c1ccccc1)c1cccs1", "metric": "GI50", "recorded_value": "> 100 µM (inactive)"}
{"molecule": "Cc1ccc(CC(Cc2ccccc2C)C(=O)O)c(C(=O)O)c1 (configuration not stated)", "metric": "GI50", "recorded_value": "> 100 µM (inactive)"}
{"molecule": "COc1ccc(-c2coc3cc(OC)cc(O)c3c2=O)cc1 [4',7-DIMETHOXY-5-HYDROXYGENISTEIN]", "metric": "GI50", "recorded_value": "29.6 µM (inactive)"}
{"molecule": "OCC1OC(Oc2cc(O)cc(/C=C\\c3ccc(O)cc3)c2)C(O)C(O)C1O (configuration not stated)", "metric": "GI50", "recorded_value": "> 100 µM (inactive)"}
{"molecule": "CC1=C(C#N)C2C(=C(N)Oc3ccccc32)C(N)=N1 (configuration not stated)", "metric": "GI50", "recorded_value": "21.1 µM (inactive)"}
{"molecule": "COc1ccc2c(c1)C(=O)N1CCOC1C2C(=O)O (configuration not stated)", "metric": "GI50", "recorded_value": "> 100 µM (inactive)"}
{"molecule": "c1cnc2c(c1)-n1cccc1C1(CCOCC1)NN2", "metric": "GI50", "recorded_value": "> 100 µM (inactive)"}
{"molecule": "Cn1c(=O)c2c(-c3ccccc3)onc2n(C)c1=O", "metric": "GI50", "recorded_value": "14.4 µM (inactive)"}
{"molecule": "COc1ccc(/C=C/C(=O)c2cccc(C(=O)/C=C/c3ccc(OC)c(OC)c3)n2)cc1OC", "metric": "GI50", "recorded_value": "> 100 µM (inactive)"}
